pIC50 by entry:
Target: UniProt:P49840
Test: GSK3α TR-FRET kinase assay
Type: biochemical
Conditions: 1 nM GSK3α, 4 μM ATP, 30 minute preincubation; geometric mean; read-out: GSK3-A TR-FRET BIOCHEMICAL (TR-FRET); GMean; IC50
pIC50: −log10 of the molar value.

Completed entries (count: 2):
CC[C@]1(c2cccc(-c3ccnc(C)c3C)c2)C2=C(CC(C)(C)NC2=O)Nc2n[nH]cc21
≥ 7.00
CCC1(c2cccc(N(C)C(C)=O)c2)C2=C(CC(C)(C)CC2=O)Nc2n[nH]cc21 (stereo not drawn)
≥ 7.00

API: the following record is the query input.
Data request: Give the measured pIC50 for CC[C@]1(c2cccc(-c3ccnc(C)c3F)c2)C2=C(CC(C)(C)NC2=O)Nc2n[nH]cc21
Data returned: ≥ 7.00

###

Target: GSK3b (GST-full length GSK3b) (Homo sapiens (Human), UniProt P49841)
Sequence (P49841 whole entry): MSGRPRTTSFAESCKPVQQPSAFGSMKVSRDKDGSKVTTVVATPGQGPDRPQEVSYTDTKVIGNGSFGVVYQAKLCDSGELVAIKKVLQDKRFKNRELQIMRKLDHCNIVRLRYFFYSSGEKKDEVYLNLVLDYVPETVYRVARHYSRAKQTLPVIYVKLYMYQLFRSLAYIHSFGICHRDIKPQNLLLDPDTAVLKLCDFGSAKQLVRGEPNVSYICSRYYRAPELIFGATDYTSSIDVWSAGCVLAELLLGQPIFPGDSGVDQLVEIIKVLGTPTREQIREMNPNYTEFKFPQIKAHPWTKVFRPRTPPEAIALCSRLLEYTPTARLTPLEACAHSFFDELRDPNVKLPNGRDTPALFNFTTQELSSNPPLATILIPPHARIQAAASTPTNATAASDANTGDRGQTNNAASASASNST
Experiment: GSK3b TR-FRET kinase assay
Type: biochemical
Settings: 1 nM GSK3b, 2 μM ATP, 30 minute preincubation, Table 16; read-out: GSK3-B TR-FRET BIOCHEMICAL (TR-FRET); IC50
pIC50: −log10 of the molar value.
parameter: pIC50

CN1CCC2(C1)C1=C(CC(C)(C)CC1=O)Nc1n[nH]cc12 (stereo not shown)
< 5.30

Data request: Give the measured pIC50 for CCC1(c2cccc(S(=O)(=O)CCOC)c2)C2=C(CC(C)(C)CC2=O)Nc2n[nH]cc21 (stereo not shown)
Data returned: ≥ 7.00

Data request: Give the measured pIC50 for CCC1(c2cccc(-c3ccncc3F)c2)C2=C(CC(C)(C)CC2=O)Nc2n[nH]cc21 (stereo not shown) [Compound 883986]
Data returned: ≥ 7.00

Data request: Give the measured pIC50 for CCC1(c2cccc(C(F)(F)F)c2)C2=C(CCN(c3cnn(C)c3C)C2=O)Nc2n[nH]cc21 (stereo not shown) [Compound 952262]
Data returned: < 5.30

Data request: Give the measured pIC50 for CCC1(c2cccc(N(c3cccnc3)C3CC3)c2)C2=C(CC(C)(C)CC2=O)Nc2n[nH]cc21 (stereo not shown)
Data returned: ≥ 7.00

###

IC50 by entry:
Target: UniProtKB P49840
Assay: GSK3α TR-FRET kinase assay
Type: biochemical
Details: GSK3-A (TR-FRET 1 mM ATP); GMean; IC50, 1 mM ATP; geometric mean

Completed entries (count: 3):
COc1ccccc1S(=O)(=O)N1CCC2(CC1)C1=C(CC(C)(C)CC1=O)Nc1n[nH]cc12
≤ 100 nM
CC1(C)CC(=O)C2=C(C1)Nc1n[nH]cc1C21CCN(S(=O)(=O)c2cnc3ccccc3c2)CC1
100 to 1000 nM
CCC1(c2cccc(C(F)(F)F)c2)C2=C(Nc3n[nH]cc31)C(F)C(C)(C)CC2=O (single isomer, unassigned) [Compound 837803]
> 5000 nM

Data request: Give the measured IC50 for CC[C@]1(c2ccccc2)C2=C(Nc3n[nH]cc31)[C@H](F)C(C)(C)CC2=O
Data returned: > 5000 nM

Data request: Give the measured IC50 for CC(=O)N1C[C@]2(C[C@@]3(CO2)C2=C(CC(C)(C)CC2=O)Nc2n[nH]cc23)[C@H]1C
Data returned: ≤ 100 nM

Data request: Give the measured IC50 for CC1(C)CC(=O)C2=C(C1)Nc1n[nH]cc1C21CCN(S(=O)(=O)CC2CC2)CC1
Data returned: ≤ 100 nM

###

Target: GSK3α (GST-full length GSK3α) (Homo sapiens (Human))
Assay: GSK3α TR-FRET kinase assay
Assay type: biochemical
Settings: 1 nM GSK3α, 4 μM ATP, 30 minute preincubation, Table 16; read-out: GSK3-A TR-FRET BIOCHEMICAL (TR-FRET); IC50
parameter: IC50

Completed entries (count: 3):
CCN(c1cccnc1)c1cccc(C2(CC)C3=C(CC(C)(C)CC3=O)Nc3n[nH]cc32)c1 (stereo not drawn) [Compound 885331]
≤ 100 nM
CCC1(c2cccc(N(c3cccnc3)C(C)C)c2)C2=C(CC(C)(C)CC2=O)Nc2n[nH]cc21 (stereo not drawn)
≤ 100 nM
CCC1(c2cccc(-c3ccnc(C(F)(F)F)c3)c2)C2=C(CC(C)(C)CC2=O)Nc2n[nH]c(C)c21 (stereo not drawn) [Compound 883989]
≤ 100 nM

Data request: Give the measured IC50 for CC[C@]1(c2cccc(N(C)C(=O)c3ccn(C)n3)c2)C2=C(CC(C)(C)CC2=O)Nc2n[nH]cc21
Data returned: ≤ 100 nM

Data request: Give the measured IC50 for CC[C@]1(c2cc(N(C)C(C)=O)ccc2F)C2=C(CC(C)(C)CC2=O)Nc2n[nH]c(C)c21
Data returned: > 5000 nM

Data request: Give the measured IC50 for CCC1(c2cccc(N(C(C)=O)C(C)C)c2)C2=C(CC(C)(C)CC2=O)Nc2n[nH]cc21 (stereo not drawn)
Data returned: ≤ 100 nM

###

Biological target: GSK3α (GST-full length GSK3α) (Homo sapiens (Human), UniProt P49840)
Sequence (P49840 whole entry): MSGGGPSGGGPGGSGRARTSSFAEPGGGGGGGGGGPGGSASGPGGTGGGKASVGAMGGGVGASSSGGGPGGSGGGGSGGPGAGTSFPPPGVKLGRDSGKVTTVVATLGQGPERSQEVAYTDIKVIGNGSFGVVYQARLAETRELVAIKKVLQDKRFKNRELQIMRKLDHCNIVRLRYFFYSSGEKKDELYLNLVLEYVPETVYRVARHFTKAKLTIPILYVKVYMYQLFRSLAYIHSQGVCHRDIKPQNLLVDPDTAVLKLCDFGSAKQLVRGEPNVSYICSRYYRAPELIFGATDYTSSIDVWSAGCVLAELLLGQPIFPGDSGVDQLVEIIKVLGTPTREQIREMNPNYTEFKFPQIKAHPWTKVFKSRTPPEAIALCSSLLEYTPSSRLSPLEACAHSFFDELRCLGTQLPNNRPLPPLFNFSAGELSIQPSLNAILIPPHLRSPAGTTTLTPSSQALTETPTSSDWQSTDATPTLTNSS
Assay: GSK3α TR-FRET kinase assay
Assay type: biochemical
Details: 1 nM GSK3α, 4 μM ATP, 30 minute preincubation, Table 16; read-out: GSK3-A TR-FRET BIOCHEMICAL (TR-FRET); IC50
Description: TR-FRET Assay: The assay was performed in a white, 384 well, low volume, flat bottom plate (Grenier). After a 30 minute preincubation in assay buffer with the indicated concentration of compound, the kinase activity was initiated by the addition of the substrates. […] After 60 min at room temperature the plate was read on Envision plate reader using Ex: 340 nm, Em: 615 nm and […]. The normalized 665/615 Signal ratio versus log compound concentration was analyzed by XLFIT to yield IC50 values.
parameter: IC50

CC[C@]1(c2cccc(-c3ccnn3C)c2)C2=C(CC3(CCS(=O)(=O)CC3)NC2=O)Nc2n[nH]cc21
≤ 100 nM
CC[C@]1(c2cccc(C(C)C)c2)C2=C(CC(C)(C)NC2=O)Nc2n[nH]cc21
> 5000 nM

Data request: Give the measured IC50 for CCC1(c2cccc(Oc3ncccn3)c2)C2=C(CC(C)(C)NC2=O)Nc2n[nH]c(C(F)(F)F)c21 (stereo not drawn)
Data returned: ≤ 100 nM

###

pIC50 by entry:
Molecular target: GSK3b (GST-full length GSK3b) (Homo sapiens (Human), UniProt P49841)
Test: GSK3b TR-FRET kinase assay
Assay type: biochemical
Settings: 1 nM GSK3b, 2 μM ATP, 30 minute preincubation, Table 16; read-out: GSK3-B TR-FRET BIOCHEMICAL (TR-FRET)
pIC50: −log10 of the molar value.

Completed entries (count: 5):
CC1(C)CC(=O)C2=C(C1)Nc1n[nH]cc1C21CCN(S(=O)(=O)c2ccc(C(F)F)cc2)CC1
≥ 7.00
CCC1(c2cccc(C3CN(C(C)=O)C3)c2)C2=C(CC(C)(C)CC2=O)Nc2n[nH]cc21 (stereo not shown) [Compound 948779]
< 5.30
CCC1(c2cccc(-c3ccnc(OC)n3)c2)C2=C(CC(C)(C)CC2=O)Nc2n[nH]cc21 (stereo not shown)
≥ 7.00
CC1(C)CC(=O)C2=C(C1)Nc1n[nH]cc1C21CCC1
6.00 to 7.00
CCC1(c2cccc(-c3ccncc3F)c2)C2=C(CC(C)(C)CC2=O)Nc2n[nH]cc21 (stereo not shown)
≥ 7.00

Data request: State the measured pIC50 (GSK3b (GST-full length GSK3b) (Homo sapiens (Human), UniProt P49841)) of CC1(C)CC(=O)C2=C(C1)Nc1n[nH]cc1C21CN(S(=O)(=O)c2cccc(F)c2)C1
Data returned: ≥ 7.00

Data request: State the measured pIC50 (GSK3b (GST-full length GSK3b) (Homo sapiens (Human), UniProt P49841)) of CCC1(c2cccc(-c3cnnn3C)c2)C2=C(CC(C)(C)CC2=O)Nc2n[nH]cc21 (stereo not shown) [Compound 947802]
Data returned: ≥ 7.00

Data request: State the measured pIC50 (GSK3b (GST-full length GSK3b) (Homo sapiens (Human), UniProt P49841)) of CC1(C)CC(=O)C2=C(Nc3n[nH]cc3C23CCN(S(=O)(=O)c2cccc(C(F)(F)F)c2)CC3)[C@H]1F
Data returned: ≥ 7.00

Data request: State the measured pIC50 (GSK3b (GST-full length GSK3b) (Homo sapiens (Human), UniProt P49841)) of CC[C@@]1(c2cccc(-c3ccnc(C)c3)c2)C2=C(CC(C)(C)[C@H](F)C2=O)Nc2n[nH]cc21
Data returned: < 5.30

Data request: State the measured pIC50 (GSK3b (GST-full length GSK3b) (Homo sapiens (Human), UniProt P49841)) of CC1(C)CC(=O)C2=C(C1)Nc1n[nH]cc1[C@]21CCOC1
Data returned: 6.00 to 7.00

Data request: State the measured pIC50 (GSK3b (GST-full length GSK3b) (Homo sapiens (Human), UniProt P49841)) of C[C@H]1CC[C@@]2(C1)C1=C(CC(C)(C)CC1=O)Nc1n[nH]cc12
Data returned: 6.00 to 7.00

Data request: State the measured pIC50 (GSK3b (GST-full length GSK3b) (Homo sapiens (Human), UniProt P49841)) of CCC1(c2cccc(C(F)(F)F)c2)C2=C(CNC2=O)Nc2n[nH]cc21 (stereo not shown) [Compound 917158]
Data returned: 5.30 to 6.00

Data request: State the measured pIC50 (GSK3b (GST-full length GSK3b) (Homo sapiens (Human), UniProt P49841)) of CC1(C)CC(=O)C2=C(C1)Nc1n[nH]cc1C21CCN(S(=O)(=O)c2cccc3c2CCCC3)CC1
Data returned: ≥ 7.00
